# pIC50 listing for each entry below
- Tested system: JAK2 (Homo sapiens, UniProt O60674)
- Construct: 5 μl of catalytic domain recombinant Kinase enzyme+Tyr peptide substrate (Invitrogen, CA); purchased Invitrogen
- Sequence (O60674 849-1124 limits assumed): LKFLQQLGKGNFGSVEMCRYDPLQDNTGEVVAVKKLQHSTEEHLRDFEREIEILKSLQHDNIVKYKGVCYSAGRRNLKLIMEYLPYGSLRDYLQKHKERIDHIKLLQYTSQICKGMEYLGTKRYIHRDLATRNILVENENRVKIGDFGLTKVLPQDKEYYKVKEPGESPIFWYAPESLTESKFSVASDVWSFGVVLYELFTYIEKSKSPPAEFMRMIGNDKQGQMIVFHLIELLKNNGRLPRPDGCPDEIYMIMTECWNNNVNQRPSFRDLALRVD
- Procedure summary: Z'-LYTE kinase assay JAK2
- Format: biochemical
pIC50: −log10 of the molar value.

Compound: NC(=O)c1cnc(Nc2ccc3ncccc3c2)cc1NCc1ccccc1 [Example 86]
Tested system: JAK2 (Homo sapiens, UniProt O60674)
pIC50: < 6.00

What value of pIC50 has been recorded for this entry: NC(=O)c1cnc(Nc2ccc(N3CCOCC3)cc2)cc1NCc1ccccc1F [Example 73] 7.00 to 8.00

Now consider NC(=O)c1cnc(Nc2ccc(C3CCN(CCF)CC3)cc2)cc1NCc1cccc(F)c1F [Example 217] and answer again. 7.00 to 8.00

Now consider CC(=O)N1CCN(c2ccc(Nc3cc(N[C@H]4CCc5ccccc54)c(C(N)=O)cn3)cc2)CC1 [Example 255] and answer again. 6.00 to 7.00

Now consider CC(=O)Nc1ccc(Nc2cc(NCc3cccc(F)n3)c(C(N)=O)cn2)cc1 [Example 486] and answer again. 6.00 to 7.00

Now consider NC(=O)c1cnc(Nc2ccc(F)cc2)cc1NCc1cccc2[nH]ccc12 [Example 319] and answer again. 6.00 to 7.00

Now consider NC(=O)c1cnc(Nc2ccc(-c3nc[nH]n3)cc2)cc1NCc1ccccc1 [Example 281] and answer again. 6.00 to 7.00

Now consider CN(C)C(=O)COc1ccc(Nc2cc(NC3(c4ccccc4)CC3)c(C(N)=O)cn2)cc1 [Example 366] and answer again. 6.00 to 7.00

###

# inhibition at 1 µM listing for each entry below
- Test system: JAK1/3 signaling to STAT6 in Ramos B cells
- Procedure summary: IL4 stimulation of JAK1/3 signaling to STAT6 in Ramos B cells (pSTAT6 Y641, FACS)
- Format: cell-based
- Protocol conditions: Homo sapiens, 1.0 uM compound, read-out: IL-4/STAT6 in Ramos Percent Inhibition at 1.0 uM
Just the number please, in %, no unit attached.

// worked examples, inhibition at 1 µM included
Structure as smiles: CC(=O)N1CCN(c2ccc(Nc3cc(NCc4cccc(Cl)c4)c(C(N)=O)cn3)cc2)CC1
inhibition at 1 µM (%): 65
--
Structure as smiles: NC(=O)c1cnc(Nc2ccc(C(=O)N3CCCC3)cc2)cc1NCC1CCCC1
inhibition at 1 µM (%): 59
--
Structure as smiles: CC(=O)N1CCN(c2ccc(Nc3cc(NCc4ccccc4F)c(C(N)=O)cn3)cc2)CC1
inhibition at 1 µM (%): 63
--
Structure as smiles: NC(=O)c1cnc(Nc2ccc(N3CCOCC3)cc2)cc1Nc1ccc(N2CCOCC2)cc1
inhibition at 1 µM (%): 46

Kindly consider the entry below.
What value of inhibition at 1 µM has been recorded for this entry: CNC(=O)[C@H]1CCCN(c2ccc(Nc3cc(NCc4ccccc4)c(C(N)=O)cn3)cc2)C1 68

###

# IC50 listing for each entry below
- Tested system: JAK3 (Homo sapiens, UniProt P52333)
- Construct: 5 μl of catalytic domain recombinant Kinase enzyme+Tyr peptide substrate (Invitrogen, CA)
- Sequence (P52333 822-1111 limits assumed): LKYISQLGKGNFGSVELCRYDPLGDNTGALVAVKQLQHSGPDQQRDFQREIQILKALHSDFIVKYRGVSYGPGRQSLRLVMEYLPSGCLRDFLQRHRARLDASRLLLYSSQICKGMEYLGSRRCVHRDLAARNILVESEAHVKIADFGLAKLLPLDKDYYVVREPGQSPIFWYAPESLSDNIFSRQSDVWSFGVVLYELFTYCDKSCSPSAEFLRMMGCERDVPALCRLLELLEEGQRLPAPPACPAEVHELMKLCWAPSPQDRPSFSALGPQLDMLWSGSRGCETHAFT
- Procedure summary: Z'-LYTE kinase assay JAK3

// worked examples, IC50 included
Structure as smiles: NC(=O)c1cnc(Nc2ccc(C3CCOCC3)cc2)cc1NCc1ccncn1
IC50: > 1000 nM
--
Structure as smiles: CN(C)C(=O)c1ccc(Nc2cc(NCc3cccc(-c4cccnc4)c3)c(C(N)=O)cn2)cc1
IC50: 1 to 10 nM
--
Structure as smiles: NC(=O)c1cnc(Nc2cccc(C3CCOCC3)c2)cc1NCc1cccc(F)c1F
IC50: 1 to 10 nM

Kindly consider the entry below.
What value of IC50 has been recorded for this entry: CN(C)C(=O)c1ccc(Nc2cc(NCc3cccc(F)n3)c(C(N)=O)cn2)cc1 1 to 10 nM
